Catalogue of logP readings, one per entry.

{"compound": "O=C(CCCNCCO)c1cccs1", "logP": 2.89}
{"compound": "Cc1ccccc1C(=O)CCCNCCO", "logP": 3.61}
{"compound": "O=C(CCCNCCO)c1ccccc1", "logP": 2.41}
{"compound": "CCc1ccccc1C(=O)CCCNCCO", "logP": 3.85}
{"compound": "CC(O)CNCCCC(=O)c1cccs1 (configuration not stated)", "logP": 2.73}
{"compound": "NCCNCCCC(=O)c1ccccc1", "logP": 2.74}
{"compound": "CC(O)CNCCCC(=O)Cc1ccccc1 (configuration not stated)", "logP": 2.53}
{"compound": "CN(CCO)CCCC(=O)Cc1ccccc1", "logP": 3.07}
{"compound": "CCN(CC)CCCC(=O)c1ccccc1", "logP": 3.79}
{"compound": "CC(O)CNCCCC(=O)c1ccccc1 (configuration not stated)", "logP": 3.28}
{"compound": "CN(CCO)CCCC(=O)c1cccs1", "logP": 3.29}
{"compound": "NCCNCCCC(=O)c1cccs1", "logP": 2.58}
{"compound": "Cc1ccsc1C(=O)CCCNCCO", "logP": 3}
{"compound": "Cc1cc(C)c(C(=O)CCCNCCO)c(C)c1", "logP": 3.16}
{"compound": "O=C(CCCNCCO)C1CCCCC1", "logP": 3.96}
{"compound": "CN(CCO)CCCC(=O)c1ccccc1", "logP": 2.4}
{"compound": "O=C(CCCNCCO)Cc1ccccc1", "logP": 3.03}

Origin of the recorded values: the SangsterLogP compilation
